# Tested on: HCT-116 colon cancer cell
# assay: MTT cell viability assay, HCT-116 colon cancer cell
# Type: cell-based
# conditionSet: Homo sapiens; HCT-116, treated 48 hours; read-out: IC50 48 hours
pIC50: −log10 of the molar value.
Classify by measured pIC50: MET if it is equal to or exceeds 5, NOT MET if it is smaller.

Decide: pIC50 of COc1cc(/C=C/C(=O)C(C)(C)C(=O)/C=C/c2ccc(OC(=O)C(C)(CO)CO)c(OC)c2)ccc1OC(=O)C(C)(CO)CO [Compound 35a] >= 5? MET

Answer whether pIC50 of COc1cc(/C=C/C(=O)/C=C(O)/C=C/c2cc(OC)c(OC(=O)C(C)(CO)CO)c(OC)c2)cc(OC)c1OC(=O)C(C)(CO)CO [Compound 30] is greater than or equal to 5. MET

Say whether COc1cc(/C=C/C(=O)/C=C(O)/C=C/c2ccc(O)c(OC)c2)ccc1O [Curcumin] shows pIC50 of 5 or more. NOT MET

Would you say CC(CO)(CO)C(=O)Oc1ccc(/C=C/C(=O)CC(=O)/C=C/c2ccc(OC(=O)C(C)(CO)CO)c(OC(F)(F)F)c2)cc1OC(F)(F)F [Compound 28] shows pIC50 at minimum 5? MET

Form field: pIC50 at least 5? Entry: COc1cc(/C=C/C(=O)CC(=O)/C=C/c2ccc(OC(=O)C(CO)(CO)COC(=O)C(CO)(CO)CO)c(OC)c2)ccc1O [Compound 38b] NOT MET

Please tell me: is the compound COc1cc(/C=C/C(=O)/C=C(O)/C=C/c2ccc(OC(=O)C(C)(CO)CO)c(OC)c2)ccc1OC(=O)C(C)(CO)CO [Compound 21a] at or over 5 in terms of pIC50? MET

Textbook exercise: given the entry COc1cc(/C=C/C(O)=C/C(=O)/C=C/c2ccc(OC(=O)C(C)(CO)CO)c(OC)c2)ccc1O [Compound 21b] , state whether its pIC50 is greater than or equal to 5. NOT MET

---

# System: HCT-116 colon cancer cell
# assay: MTT cell viability assay, HCT-116 colon cancer cell
# Format: cell-based
# conditionSet: Homo sapiens; HCT-116, treated 72 hours; read-out: IC50 72 hours
For each record, write down the corresponding IC50.
Numeric answer only, unit µM assumed.

What measured IC50 goes with COc1ccc(/C=C/C(O)=C/C(=O)/C=C/c2ccc(OC(=O)C(C)(CO)CO)c(OC)c2)cc1OC ? 4.77

Quick one: IC50 of COc1cc(/C=C/C(=O)C(C)(C)C(=O)/C=C/c2ccc(OC(=O)C(C)(CO)CO)c(OC)c2)ccc1OC(=O)C(C)(CO)CO [Compound 35a] ? 1.65

Look up IC50: CC(CO)(CO)C(=O)Oc1ccc(/C=C/C(=O)/C=C(O)/C=C/c2ccc(OC(=O)C(C)(CO)CO)cc2)cc1 [Compound 23a] 4.1

Record request: IC50 value, item COc1cc(/C=C/C(=O)/C=C(O)/C=C/c2ccc(OC(=O)C(C)(CO)CO)c(OC)c2)ccc1OC(=O)C(C)(CO)CO [Compound 21a] 3.91

I have this compound here, COc1ccc(/C=C/C(=O)CC(=O)/C=C/c2ccc(OC)c(OC(=O)C(C)(CO)CO)c2)cc1OC(=O)C(C)(CO)CO [Compound 24a] , and I need its recorded IC50. 2.79

# get_value(readout='IC50', item= CC(CO)(CO)C(=O)Oc1ccc(/C=C/C(=O)CC(=O)/C=C/c2ccc(OC(=O)C(C)(CO)CO)c(OC(F)(F)F)c2)cc1OC(F)(F)F ) 6.27

What value of measured IC50 is listed for COc1ccc(/C=C/C(=O)C(C)(C)C(=O)/C=C/c2ccc(OC)c(OC(=O)C(C)(CO)CO)c2)cc1OC(=O)C(C)(CO)CO ? 1.26

IC50 for COc1cc(/C=C/C(=O)CC(=O)/C=C/c2ccc(OC(=O)C(CO)(CO)CO)c(OC)c2)ccc1O [Compound 38a] ? 9.86

What value of IC50 has been recorded for this entry: COc1cc(/C=C/C(=O)C(CO)(CO)C(=O)/C=C/c2ccc(OC(=O)C(C)(CO)CO)c(OC)c2)ccc1OC(=O)C(C)(CO)CO 58

Param item = COc1ccc(/C=C/C(=O)C(COC(=O)C(C)(CO)CO)(COC(=O)C(C)(CO)CO)C(=O)/C=C/c2ccc(OC)c(OC)c2)cc1OC ; retrieve measured IC50. 25.1

Returns the measured IC50 for the input compound. Input: C=CCC(CC=C)(C(=O)/C=C/c1ccc(OC(=O)C(C)(CO)CO)c(OC)c1)C(=O)/C=C/c1ccc(OC(=O)C(C)(CO)CO)c(OC)c1 [Compound 35e] 0.71

Item COc1ccc(/C=C/C(=O)C(CO)(CO)C(=O)/C=C/c2ccc(OC)c(OC)c2)cc1OC has what recorded IC50? 7.18

Can you share its IC50? I mean this compound: CCc1cc(/C=C/C(=O)CC(=O)/C=C/c2cc(CC)c(OC(=O)C(C)(CO)CO)c(CC)c2)cc(CC)c1OC(=O)C(C)(CO)CO 3.51
